Recorded measurements of pKd, one per entry
target: T1, human GPC3-His protein (human, UniProt P51654 25-559, limits assumed); experiment: SPR, antibody captured on Protein A chip, human GPC3-His injected, 1:1 Langmuir model;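 also: flow cell at 25 °C, antigen injected for 240 s at five twofold dilutions starting at 200 nM, dissociation followed up to 600 s, double-referenced sensorgrams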
T1 construct: also called human GPC3 protein; not shown: His tag
A value of pKd is the negative decimal logarithm of a concentration given in moles per litre.

Sample answers from the record:
hAb007LH2L1b (antibody, human IgG1, V domains shown, Humanized F3.81.19) VH: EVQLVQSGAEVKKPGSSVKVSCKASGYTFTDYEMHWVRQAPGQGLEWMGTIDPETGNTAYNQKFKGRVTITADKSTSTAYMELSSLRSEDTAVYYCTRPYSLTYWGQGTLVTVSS VL: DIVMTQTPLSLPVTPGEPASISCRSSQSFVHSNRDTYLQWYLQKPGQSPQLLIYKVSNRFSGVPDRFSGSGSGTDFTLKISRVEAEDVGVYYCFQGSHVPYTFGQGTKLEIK	8.45
hAb005LH2L1b (antibody, human IgG1, V domains shown, Humanized F3.54.12) VH: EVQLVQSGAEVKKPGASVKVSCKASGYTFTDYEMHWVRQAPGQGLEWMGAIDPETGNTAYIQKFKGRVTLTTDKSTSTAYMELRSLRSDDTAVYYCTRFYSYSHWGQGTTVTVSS VL: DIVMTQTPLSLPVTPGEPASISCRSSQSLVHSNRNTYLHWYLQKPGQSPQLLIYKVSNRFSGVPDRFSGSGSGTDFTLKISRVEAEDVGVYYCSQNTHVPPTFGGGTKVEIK	8.11
hAb003LH1L1b (antibody, human IgG1, V domains shown, Humanized F2.154.1) VH: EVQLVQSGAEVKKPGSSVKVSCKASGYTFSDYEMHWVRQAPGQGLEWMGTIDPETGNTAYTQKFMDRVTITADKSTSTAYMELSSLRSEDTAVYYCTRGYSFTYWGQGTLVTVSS VL: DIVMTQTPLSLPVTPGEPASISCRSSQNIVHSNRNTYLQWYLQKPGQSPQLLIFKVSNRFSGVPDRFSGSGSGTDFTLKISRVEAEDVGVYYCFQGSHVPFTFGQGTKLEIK	8.77
hAb006LH3L1c (antibody, human IgG1, V domains shown, Humanized F3.38.7) VH: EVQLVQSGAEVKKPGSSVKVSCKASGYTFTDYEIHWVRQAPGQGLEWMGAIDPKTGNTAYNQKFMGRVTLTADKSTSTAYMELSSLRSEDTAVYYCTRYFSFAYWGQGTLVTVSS VL: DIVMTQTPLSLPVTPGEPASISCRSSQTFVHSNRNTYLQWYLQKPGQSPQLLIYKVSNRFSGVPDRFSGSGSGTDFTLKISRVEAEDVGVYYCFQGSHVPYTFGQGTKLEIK	8.50
hAb007LH1L1c (antibody, human IgG1, V domains shown, Humanized F3.81.19) VH: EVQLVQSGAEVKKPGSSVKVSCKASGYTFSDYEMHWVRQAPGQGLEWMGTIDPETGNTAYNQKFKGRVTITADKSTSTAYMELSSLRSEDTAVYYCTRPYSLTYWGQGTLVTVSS VL: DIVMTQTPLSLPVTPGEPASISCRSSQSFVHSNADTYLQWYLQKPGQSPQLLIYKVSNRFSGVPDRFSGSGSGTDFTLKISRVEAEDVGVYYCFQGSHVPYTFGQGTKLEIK	8.37

Here is another binder to look at.
Exercise: So what does the record say about pKd for hAb006LH3L1b (antibody, human IgG1, V domains shown, Humanized F3.38.7) VH: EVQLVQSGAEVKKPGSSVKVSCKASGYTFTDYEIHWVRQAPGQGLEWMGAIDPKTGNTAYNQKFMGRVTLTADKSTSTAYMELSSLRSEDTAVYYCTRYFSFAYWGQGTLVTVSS VL: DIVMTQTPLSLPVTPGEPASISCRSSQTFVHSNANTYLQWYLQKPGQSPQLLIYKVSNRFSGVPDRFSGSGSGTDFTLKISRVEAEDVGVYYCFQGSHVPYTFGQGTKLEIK ?
Key: 8.08
